Origin of measurements: patent US11560388B2

Test system: microfilariae of Dirofilaria immitis
Assay: Screening of activity against microfilaria of Dirofilaria immitis (motility, dose response)
Format: cell-based
Settings: 72 h, read-out: EC50 (motility of the microfilaria)
pEC50: −log10 of the molar value.
Listing of recorded pEC50 by entry.

# compound, property, value
measured = [
    ("CC(=O)c1c(C(=O)N[C@H]2CCOc3ccc(F)cc32)sc2c(-c3cc(Cl)cc(Cl)c3)ccnc12 [Compound 259-4]", "pEC50", "5.00 to 7.00"),
    ("CC(C)(F)c1c(C(=O)N[C@H]2CCOc3ccccc32)sc2c(-c3cc(Cl)cc(Cl)c3)cncc12 [Compound 264]", "pEC50", "> 8.00"),
    ("CC(C)c1c(C(=O)N[C@H]2CCOc3ccccc32)sc2c(C3CCCCC3)ccnc12 [Compound 223]", "pEC50", "> 8.00"),
]

Sample CC(C)c1c(C(=O)N[C@H]2CCOc3ccccc32)sc2c(-c3cc(F)cc(F)c3)c(Cl)cnc12 [Compound 310] — what was its pEC50?
5.00 to 7.00

Here is the next compound: O=C(N[C@H]1CCOc2ccccc21)c1sc2c(-c3cc(F)cc(F)c3)ccnc2c1C(F)F [Compound 205]
5.00 to 7.00

Here is the next compound: CC(C)(O)c1c(C(=O)N[C@H]2CCOc3ccccc32)sc2c(-c3cc(Cl)cc(Cl)c3)c(F)cnc12 [Compound 263-8]
> 8.00

Here is the next compound: O=C(N[C@H]1CCOc2ccccc21)c1sc2c(-c3cc(F)cc(F)c3)ccnc2c1C(F)(F)C(F)(F)F [Compound 238]
> 8.00

Here is the next compound: C[C@@H]1C[C@H](C)CN(c2ccnc3c(N4CCOCC4)c(C(=O)N[C@H]4CCOc5ccccc54)sc23)C1 [Compound 217]
5.00 to 7.00
